Molecular target: T1, cyno CD30L LZ (cynomolgus monkey, UniProt A0A7N9CVX7 63-234)
T1 sequence: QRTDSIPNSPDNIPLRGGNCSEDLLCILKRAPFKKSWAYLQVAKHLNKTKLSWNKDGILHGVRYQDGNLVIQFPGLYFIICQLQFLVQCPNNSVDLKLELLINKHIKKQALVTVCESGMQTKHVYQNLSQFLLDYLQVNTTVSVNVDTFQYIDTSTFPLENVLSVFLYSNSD
Assay: cell-based or functional assay
# Lookup of reported IC50, inhibition of IL-8 release (K299 single cell assay with cyno CD30L LZ) keyed by entry
Metric name: IC50, inhibition of IL-8 release (K299 single cell assay with cyno CD30L LZ) (nM)

* Antibody F (antibody, V domains shown, also called mAb F) VH: QVQLQESGPGLVKPSETLSLTCTVSGGSISSYYWSWIRQPAGKGLEWIGRIFASGSTNYNPSLRSRVTMSRDTSKNQFSLKLSSVTAADTAVYYCAKERVGVQDYYHYSGMDVWGQGTTVTVSS VL: QSALTQPASVSGSPGQSITISCTGTSSDVGLYNYVSWYQQQPGKAPKLMIYEVSKRPSGVSNRFSGSTSGNTASLTISGLQADDEADYSCSSYTSSSTWVFGGGTKLTVL | 5.5
* Antibody E (antibody, V domains shown, also called mAb E) VH: QVQLQESGPRLVKPSETLSLTCTVSGGSITNNYWSWIRQPAGKGLEWIGRVYSSGLTNYKPSLKSRVTMSVDTSKNQFSLRLNSVTAADTAVYYCARERATVTTRYHYDGMDVWGQGTSVTVSS VL: QSALTQPASVSGSPGQSITISCTGSSSDIGTYNYVSWYQQYPGKAPELMIYEVNNRPSGVSDRFSGSTSGNTASLTISGLQANDEADYYCSSYSSSSTWVFGGGTKLTVL | 5.4
* Antibody A (antibody, V domains shown, Human antibody (XenoMouse); also called mAb A; anti-hCD30L A) VH: QVQLQESGPGLVKPSETLSLTCTVSGGSISSYIWSWIRQPAGKGLEWIGRIYASGNTNYNPSLKSRVTMSVDTSKNQFSLKLSSMTAADTAVYYCARDYRVAGTYYYYYGLDVWGQGTTVTVSS VL: QSALTQPASVSGSPGQSITISCTGTSSDVGVYDYVSWYQQHPGKAPKLMIYEVSNRPSGVSNRFSGSKSGNTASLTISGLQTEDEADYYCSSYTSRSTWVFGGGTKLTVL | 2
